For each record, write down the corresponding normalized growth.
Experiment: chemical genetic growth profiling, strain panel (AID 1159580);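 also: tested at 20 µM; growth read once vehicle control cultures reached saturation at 30 °C; 1 = growth at the plate median or of vehicle wells; lower values mean less growth of the strain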
Details: S. cerevisiae deletion strains, growth OD, locus YIR030C, strain dcg1, active compounds read low
The whole screen tested about 5,500 compounds, of which about 2,000 (36%) were called active. Roughly 18% stayed inconclusive and do not appear here. This is one part of the list. Where a SMILES comes first, the peptide text is derived from it. The star is where a group is joined. For = O=C*
The answer should be written as a number, with no unit following it.

If you can, please state the reported normalized growth value of CC(C)=CCCC1(C)C=Cc2c(O)c3c(c(CC=C(C)C)c2O1)OC12C(CC4CC1C(C)(C)OC2(C/C=C(/C)C(=O)O)C4O)C3=O (stereo not given) .
0.997

If you can, please state the reported normalized growth value of Cc1cc(O)cc(O)c1C(=O)O .
1.01

If you can, please state the reported normalized growth value of C[C@@H]1OC(O[C@H]2[C@H](O)[C@@H](O)[C@H](OC[C@H]3O[C@@H](OC(=O)[C@]45CCC(C)(C)CC4C4=CCC6[C@@]7(C)CC[C@H](OC8OC[C@H](O)[C@H](O)[C@H]8OC8O[C@@H](C)[C@H](O)[C@@H](O)[C@H]8O)[C@@](C)(CO)C7CC[C@@]6(C)[C@]4(C)CC5)[C@H](O)[C@@H](O)[C@@H]3O)O[C@@H]2CO)[C@H](O)[C@H](O)[C@H]1O (stereo not given in full) .
1

If you can, please state the reported normalized growth value of CNC(=O)O/N=C\C(C)(C)SC .
0.992

If you can, please state the reported normalized growth value of CSCCC(NC=O)C(=O)NC(Cc1ccccc1)C(=O)O (stereo not drawn) (For-Met-Phe-OH; configuration not given here) .
1.01

If you can, please state the reported normalized growth value of C/C=C(/C)C(=O)OC1CCC2(C)C3CCC4C5(O)CC(O)C6(O)C(CN7CC(C)CCC7C6(C)O)C5(O)CC42OC13O (stereo not given) .
0.978

If you can, please state the reported normalized growth value of CC(=O)O[C@H]1CC[C@@]2(C)C(CC[C@]3(C)C2C(=O)C=C2C4[C@@H](C)[C@H](C)CC[C@]4(C(=O)O)CC[C@]23C)C1(C)C (stereo not given in full) .
0.992

If you can, please state the reported normalized growth value of CC(C)(C#N)O[C@@H]1O[C@H](CO)[C@@H](O)[C@H](O)[C@H]1O .
0.998

If you can, please state the reported normalized growth value of Cc1cc(O)ccc1Cl .
1

If you can, please state the reported normalized growth value of COC1=C[C@@H]2[C@@H]3Cc4ccc(OC)c(O)c4[C@]2(CCN3C)CC1=O .
0.989

* * *

Assay: chemical genetic growth profiling, strain panel (AID 1159580);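 also: tested at 20 µM; growth read once vehicle control cultures reached saturation at 30 °C; 1 = growth at the plate median or of vehicle wells; lower values mean less growth of the strain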
Conditions: S. cerevisiae deletion strains, growth OD, locus YOR316C, strain cot1, active compounds read low
Out of some 5,500 compounds screened, about 2,000 (36%) were called active. Inconclusive results (about 18%) are left out. Some of the results follow.
For each record, write down the corresponding normalized growth.
The answer should be written as a number, with no unit following it.

If you can, please state the reported normalized growth value of N#CC(O[C@@H]1O[C@H](CO[C@@H]2O[C@H](CO)[C@@H](O)[C@H](O)[C@H]2O)[C@@H](O)[C@H](O)[C@H]1O)c1ccccc1 (stereo partly specified) .
0.985

If you can, please state the reported normalized growth value of CC(C)CC(N(C)C)C1(c2ccc(Cl)cc2)CCC1 (stereo unspecified) .
1.01

If you can, please state the reported normalized growth value of COc1ccc2[nH]cc(CCN)c2c1 .
0.994

If you can, please state the reported normalized growth value of Cc1cc(C(C)(C)C)c(O)c(C(C)(C)C)c1 .
0.992

If you can, please state the reported normalized growth value of CC(C)=CCCC1(C)C=Cc2c(O)c3c(c(CC=C(C)C)c2O1)OC12C(=CC4CC1C(C)(C)OC2(C/C=C(\C)C(N)=O)C4=O)C3=O (stereo unspecified) .
0.995

If you can, please state the reported normalized growth value of CC(C)(Oc1ccc(CCNC(=O)c2ccc(Cl)cc2)cc1)C(=O)O .
1.03
